Molecular target: T1, HLA-DR4 immunoaffinity-purified from Priess EBV-transformed B cells (DRB1*0401)
T1 construct: Detergent-solubilised native protein, purified with the anti-HLA-DR mAb L243; Priess cells also carry DRw53, which the L243 column would not separate; The elution used cells pulsed with preproinsulin; also called soluble HLA-DR4
Assay: competition against 2.5 µM biotinylated invariant chain 98-117 for purified HLA-DR4, L243 capture, DELFIA
pIC50: −log10 of the molar value.
assayMetric: pIC50

Request: Would you kindly share the measured pIC50 for DLQVGQVELGGGPGAGSLQPLALE [preproinsulin peptide C4-C27] ?
Result: 5.52

Request: And then EDLQVGQVELGGGPGAGSLQPLAL [preproinsulin peptide C3-C26] , what is it?
Result: 5.52

Request: And then GSLQPLALEGSLQKRGIV (Synthetic peptide; also called PI C19-A3; Proinsulin C19-A3) [preproinsulin peptide C19-A3] , what is it?
Result: 6.30

(a) QPLALEGSLQKRGIVEQ (Synthetic peptide) [preproinsulin peptide C22-A5]
(b) GGGPGAGSLQPLALEGSLQK (Synthetic peptide; also called C13-32) [preproinsulin peptide C13-C32]
Request: Between the entries labelled a and b , which has a larger pIC50 value on record? Give the chosen item's label as your response.
Result: a
